test.summary: Quantitative High-Throughput drug screen in 47 multiple myeloma cell lines against the NCATS MIPE library collection: PE2_PLB cell viability assay (AID 1919869); note: nearly all actives have a fitted effect of over 35% in size
reported.conditions: PE2_PLB myeloma cells viability, ATP luminescence, 48 h; series mostly up to 45.8 µM
Inconclusive results are not listed. Calls of active or inactive are those of the source. Calls come from the whole dose curve; as a rule, active = well fitted cell-killing curve with a large enough effect; inconclusive = small, poorly fitted or top-dose-only effect, or effect the other way; inactive = no such curve, though single readings can be large or run the other way.
Permitted responses: active, inactive

INPUT: What classification did O=C1c2c(O)ccc(O)c2C(=O)c2c(NCCNCCO)ccc(NCCNCCO)c21 end up with in this test?
OUTPUT: active

INPUT: Which outcome did this test record for the compound OCCN1CCN(CCCN2c3ccccc3Sc3ccc(C(F)(F)F)cc32)CC1 ?
OUTPUT: active

INPUT: Assay result, entry COc1ccc2[nH]cc(CCNC(C)=O)c2c1 — outcome?
OUTPUT: inactive

INPUT: Could you check what this test reported for O=c1c(-c2ccc(O)cc2)coc2cc(O)cc(O)c12 ?
OUTPUT: inactive

INPUT: Status in this test for CC1(C)O[C@H]2CC(=O)OC[C@]23[C@H]2CC[C@@]4(C)[C@H](c5ccoc5)OC(=O)[C@H]5O[C@]54[C@]2(C)C(=O)C[C@@H]13 ?
OUTPUT: inactive

INPUT: Identify the outcome logged in this assay for the compound shown: NC(=O)NO
OUTPUT: active

INPUT: What call does the record list for COc1ccc2c(c1)c(CC(=O)O)c(C)n2C(=O)c1ccc(Cl)cc1 ?
OUTPUT: inactive

INPUT: Kindly provide the recorded test outcome for the following compound: COc1cc2nc(N(C)CCCNC(=O)C3CCCO3)nc(N)c2cc1OC (stereo unspecified)
OUTPUT: inactive

INPUT: Returns: the outcome recorded for COc1ccccc1OCC(O)CN1CCN(CC(=O)Nc2c(C)cccc2C)CC1 (stereo unspecified) in this assay.
OUTPUT: inactive

INPUT: Hi, do you know how C[C@@H]1CC(=O)NN=C1c1ccc(NN=C(C#N)C#N)cc1 came out in this test?
OUTPUT: active

INPUT: Could you please tell me the result logged for CNCCCC12CCC(c3ccccc31)c1ccccc12 in this assay?
OUTPUT: active

INPUT: In this assay, the call recorded for CCC1(c2ccccc2)C(=O)NCNC1=O was what?
OUTPUT: active

INPUT: Please share the test call associated with NCCCCCC(=O)O .
OUTPUT: inactive

INPUT: Given CC(C(=O)O)c1cccc(C(=O)c2ccccc2)c1 (stereo unspecified) , state the outcome it received in this test.
OUTPUT: active

INPUT: # lookup: test call for CCOC(=O)C(C)(C)Oc1ccc(Cl)cc1
OUTPUT: inactive

INPUT: Please state the recorded outcome for this compound: Cn1c(=O)c2c(ncn2C)n(C)c1=O
OUTPUT: inactive

INPUT: Lab log entry: O=c1[nH]cc(F)c(=O)[nH]1 — outcome as called in the assay?
OUTPUT: inactive

INPUT: For Cc1cn([C@H]2C[C@H](N=[N+]=[N-])[C@@H](CO)O2)c(=O)[nH]c1=O , what call appears in the results of this test?
OUTPUT: active

INPUT: I'd appreciate the recorded outcome for COc1ccccc1OCCNCC(O)COc1cccc2[nH]c3ccccc3c12 (stereo unspecified) from this test.
OUTPUT: inactive

INPUT: Dear colleague, could you share the recorded outcome for CC(CCc1ccc(O)cc1)NCCc1ccc(O)c(O)c1 (stereo unspecified) when you have a moment?
OUTPUT: active

INPUT: How did this test come out for CN(C)c1nc(N(C)C)nc(N(C)C)n1 ?
OUTPUT: inactive

INPUT: For CN1CCN(CCCN2c3ccccc3Sc3ccc(Cl)cc32)CC1 , which call appears in the assay record?
OUTPUT: active

INPUT: What outcome does the record of this test show for CC(=O)OCC(CCn1cnc2cnc(N)nc21)COC(C)=O ?
OUTPUT: inactive

INPUT: Hello, I am checking results. What call was entered for NCCS(=O)(=O)O ?
OUTPUT: inactive

INPUT: What was the test verdict on CC(C)(Oc1ccc(C2CC2(Cl)Cl)cc1)C(=O)O (stereo unspecified) ?
OUTPUT: inactive

INPUT: Returns: the outcome recorded for Cn1cnc2c1c(=O)[nH]c(=O)n2C in this assay.
OUTPUT: active

INPUT: Test call, this compound: COc1ccc(C2CNC(=O)C2)cc1OC1CCCC1 (stereo unspecified)
OUTPUT: inactive

INPUT: Assay result, entry Cc1ccc(C(=O)Nc2ccc(S(=O)(=O)O)c3cc(S(=O)(=O)O)cc(S(=O)(=O)O)c23)cc1NC(=O)c1cccc(NC(=O)Nc2cccc(C(=O)Nc3cc(C(=O)Nc4ccc(S(=O)(=O)O)c5cc(S(=O)(=O)O)cc(S(=O)(=O)O)c45)ccc3C)c2)c1 — outcome?
OUTPUT: active

INPUT: Record lookup: outcome of this test for CC[N+](CC)(CC)CCOc1cccc(OCC[N+](CC)(CC)CC)c1OCC[N+](CC)(CC)CC ?
OUTPUT: inactive

INPUT: For COc1cc2nc(N3CCN(C(=O)c4ccco4)CC3)nc(N)c2cc1OC , what call appears in the results of this test?
OUTPUT: active

INPUT: // return assay outcome for CN(CCOc1ccc(NS(C)(=O)=O)cc1)CCc1ccc(NS(C)(=O)=O)cc1
OUTPUT: inactive

INPUT: For O=C1Cc2cc(CCN3CCN(c4nsc5ccccc45)CC3)c(Cl)cc2N1 , which call appears in the assay record?
OUTPUT: active

INPUT: What is the recorded call for this compound in the test? COC(=O)Nc1nc2ccc(C(=O)c3cccs3)cc2[nH]1
OUTPUT: active

INPUT: For this compound, state the assay outcome: Nc1ccn([C@H]2CC[C@@H](CO)O2)c(=O)n1
OUTPUT: inactive

INPUT: Fill in: this test's call for CCCNCC(O)COc1ccccc1C(=O)CCc1ccccc1 (stereo unspecified) is ___
OUTPUT: inactive

INPUT: Give the logged outcome of this assay for the following compound: NC(=O)OCC(COC(N)=O)c1ccccc1
OUTPUT: inactive

INPUT: Kindly provide the recorded test outcome for the following compound: CCOC(=O)c1ncn2c1CN(C)C(=O)c1cc(F)ccc1-2
OUTPUT: inactive

INPUT: Tell me the recorded outcome of this test for CN1CCN(C2=Nc3cc(Cl)ccc3Nc3ccccc32)CC1 .
OUTPUT: inactive

INPUT: Give the logged outcome of this assay for the following compound: Nc1nc2c(ncn2COC(CO)CO)c(=O)[nH]1
OUTPUT: active

INPUT: Fill in: this test's call for CC(C)NCC(O)c1ccc(O)c(O)c1 (stereo unspecified) is ___
OUTPUT: active

INPUT: Outcome? Cc1ccccc1N1C(=O)c2cc(S(N)(=O)=O)c(Cl)cc2NC1C (stereo unspecified)
OUTPUT: inactive

INPUT: Look up the recorded call for CC1(CN2CCC(n3c(=O)[nH]c4ccccc43)CC2)OCc2ccccc2-n2cccc21 (stereo unspecified) in this test.
OUTPUT: active

INPUT: Check the results log: what was the call for CN1CCC(=C2c3ccccc3CC(=O)c3sccc32)CC1 ?
OUTPUT: active

INPUT: Name the outcome recorded for NC12CC3CC(CC(C3)C1)C2 in the assay.
OUTPUT: inactive

INPUT: Would you mind telling me which call this test gave CS(=O)(=O)CCNCc1ccc(-c2ccc3ncnc(Nc4ccc(OCc5cccc(F)c5)c(Cl)c4)c3c2)o1 ?
OUTPUT: active

INPUT: Record request — test call for CCc1cccc2c3c([nH]c12)C(CC)(CC(=O)O)OCC3 (stereo unspecified)
OUTPUT: inactive

###

test.summary: Quantitative High-Throughput drug screen in 47 multiple myeloma cell lines against the NCATS MIPE library collection: KMS12BM_JCRB cell viability assay (AID 1918971); note: nearly all actives have a fitted effect of over 35% in size
reported.conditions: KMS12BM myeloma viability, CellTiter-Glo ATP, 48 h; series mostly up to 45.8 µM
Inconclusive results are not listed. Calls of active or inactive are those of the source. The call rests on the fitted dose curve; in most records, active means well fitted cell-killing curve with a large enough effect; inconclusive means small, poorly fitted or top-dose-only effect, or effect the other way; inactive means no such curve, though single readings can be large or run the other way.
Respond using exactly one of the listed classes: 1 for active, 0 for inactive

INPUT: Answer briefly: the call reported for CC1(CN2CCC(n3c(=O)[nH]c4ccccc43)CC2)OCc2ccccc2-n2cccc21 (stereo unspecified) in this assay.
OUTPUT: 1

INPUT: Fill in: this test's call for NCCc1cnc[nH]1 is ___
OUTPUT: 0

INPUT: // outcome(item) with item = O=C1c2c(O)ccc(O)c2C(=O)c2c(NCCNCCO)ccc(NCCNCCO)c21
OUTPUT: 1

INPUT: Dear colleague, could you share the recorded outcome for NC(CO)C(=O)NNCc1ccc(O)c(O)c1O (stereo unspecified) when you have a moment?
OUTPUT: 1

INPUT: For CN1CCN(CCCN2c3ccccc3Sc3ccc(Cl)cc32)CC1 , which call appears in the assay record?
OUTPUT: 1

INPUT: So what was the verdict on CC(=O)OCC(CCn1cnc2cnc(N)nc21)COC(C)=O in this test?
OUTPUT: 0

INPUT: Tell me the assay call for Cn1cnc2c1c(=O)[nH]c(=O)n2C please.
OUTPUT: 1

INPUT: What classification did O=C1Cc2cc(CCN3CCN(c4nsc5ccccc45)CC3)c(Cl)cc2N1 end up with in this test?
OUTPUT: 1

INPUT: For CCOC(=O)c1ncn2c1CN(C)C(=O)c1cc(F)ccc1-2 , which call appears in the assay record?
OUTPUT: 1

INPUT: Hey, what did the test say about Cn1c(=O)c2[nH]cnc2n(C)c1=O ?
OUTPUT: 0

INPUT: Which outcome was entered for the molecule NCCCCCC(=O)O in this test?
OUTPUT: 0

INPUT: # fetch the recorded call for COc1ccc(C2CNC(=O)C2)cc1OC1CCCC1 (stereo unspecified) here
OUTPUT: 0

INPUT: // outcome(item) with item = Clc1ccccc1C(c1ccccc1)(c1ccccc1)n1ccnc1
OUTPUT: 1

INPUT: # lookup: test call for CN1CCN(C2=Nc3cc(Cl)ccc3Nc3ccccc32)CC1
OUTPUT: 0

INPUT: Could you kindly confirm the outcome this assay logged for CC(C)(C)C(=O)Oc1ccc(S(=O)(=O)Nc2ccccc2C(=O)NCC(=O)O)cc1 ?
OUTPUT: 0

INPUT: # fetch the recorded call for Cc1cnc(C(=O)NCCc2ccc(S(=O)(=O)NC(=O)NC3CCCCC3)cc2)cn1 here
OUTPUT: 1

INPUT: Per the assay record, what outcome was assigned to NC12CC3CC(CC(C3)C1)C2 ?
OUTPUT: 0

INPUT: For this molecule, state the assay outcome: CNCCCC12CCC(c3ccccc31)c1ccccc12
OUTPUT: 1

INPUT: Please share the test call associated with O=C(Nc1ccc([N+](=O)[O-])cc1Cl)c1cc(Cl)ccc1O .
OUTPUT: 1

INPUT: // return assay outcome for Cc1ccccc1N1C(=O)c2cc(S(N)(=O)=O)c(Cl)cc2NC1C (stereo unspecified)
OUTPUT: 0

INPUT: What is the recorded call for this molecule in the test? CC1(C)O[C@H]2CC(=O)OC[C@]23[C@H]2CC[C@@]4(C)[C@H](c5ccoc5)OC(=O)[C@H]5O[C@]54[C@]2(C)C(=O)C[C@@H]13
OUTPUT: 0
